Numbers sourced from the kinase profiling compilation of Christmann-Franck et al. (2016).

// reported residual activity for each item listed
Target: MAPK14 (human)
Assay: radiometric filter-binding kinase assay
Conditions: compound 1.0 µM
Give just the numeric value; % need not be written.

compound=C[C@H]1CCCC(=O)CCC/C=C/c2cc(O)cc(O)c2C(=O)O1 recordedendpoint="residual activity" unitabbrev=% testresult=93
compound=O=C(Nc1nc2cc(C(F)(F)F)cc(NC3CC3)n2n1)c1cccnc1 recordedendpoint="residual activity" unitabbrev=% testresult=114
compound=O=C(O)c1ccc(-c2c[nH]c3ncc(-c4ccccc4)cc23)cc1C1CCCC1 recordedendpoint="residual activity" unitabbrev=% testresult=119
compound=NCC(=O)Nc1ccc(-n2nc(C(F)(F)F)cc2-c2ccc3c(ccc4ccccc43)c2)cc1 recordedendpoint="residual activity" unitabbrev=% testresult=100

Kindly review the next compound as well.
Query: Field: residual activity (MAPK14 (human)). Entry: COc1cc(O)c2c(c1)[C@H]1OC1C[C@H](O)[C@H](O)C(=O)/C=C\C[C@H](C)OC2=O (stereo not given in full)
Reply: 105

###

Molecular target: MAPK15 (human)
Assay: radiometric filter-binding kinase assay
Conditions: compound 10.0 µM
recordedEndpoint: residual activity (%)
Give just the numeric value; % need not be written.

compound=NC(=O)c1cc(-c2ccnc(NC3CCCCC3)c2)nc(N2CCNCC2)c1 testedsystem="MAPK15 (human)" recordedendpoint="residual activity" testresult=4
compound=CNc1nc(-c2ccc3c(N)n[nH]c3c2)cc(N2C[C@@H](C(=O)NC3CCCCC3)CC[C@H]2C)n1 testedsystem="MAPK15 (human)" recordedendpoint="residual activity" testresult=83
compound=COc1cc2ncn(-c3cc(OCc4ccccc4S(C)(=O)=O)c(C#N)s3)c2cc1OC testedsystem="MAPK15 (human)" recordedendpoint="residual activity" testresult=15

Query: Field: residual activity (MAPK15 (human)). Entry: CCc1cncnc1N1CCN(Cc2nc3cc(C(F)(F)F)ccc3[nH]2)CC1
Reply: 71

Query: Field: residual activity (MAPK15 (human)). Entry: CC(C)(C#N)c1ccc(N2C(=O)OCc3cnc4ccc(-c5cnc6ccccc6c5)cc4c32)cc1
Reply: 67

###

// reported residual activity for each item listed
Biological target: MAPK12 (human) (UniProt P53778)
Sequence (P53778 whole entry, looked up): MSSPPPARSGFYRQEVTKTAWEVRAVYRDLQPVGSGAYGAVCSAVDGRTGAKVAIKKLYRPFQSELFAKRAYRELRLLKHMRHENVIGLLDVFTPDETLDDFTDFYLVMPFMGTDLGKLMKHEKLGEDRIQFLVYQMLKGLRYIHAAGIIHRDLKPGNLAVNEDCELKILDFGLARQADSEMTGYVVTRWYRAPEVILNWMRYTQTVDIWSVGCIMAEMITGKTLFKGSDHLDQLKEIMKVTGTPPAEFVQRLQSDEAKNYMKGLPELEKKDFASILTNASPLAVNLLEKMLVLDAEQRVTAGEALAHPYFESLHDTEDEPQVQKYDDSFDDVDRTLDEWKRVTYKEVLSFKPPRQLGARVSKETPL
Test: radiometric filter-binding kinase assay
Settings: compound 100.0 µM
Give just the numeric value; % need not be written.

Worked examples, 3 molecules total:
structuresmiles=Cc1cc(N=Nc2cc(S(=O)(=O)O)c(C)cc2C)c(N)cc1O testresult=108
structuresmiles=N#Cc1c(O)c2c(-c3ccc(-c4ccccc4O)cc3)csc2[nH]c1=O testresult=83
structuresmiles=Cc1ccc2c(c1)C(=O)[C@@]1(O)CCN(c3ccccc3)C1=N2 testresult=80

Kindly review the next molecule as well.
Query: I have this molecule here, COC(=O)/C=C/C(=O)OC , and I need its recorded residual activity.
Reply: 96

###

// reported residual activity for each item listed
Test system: OXSR1 (human), O95747 [T185E]
Sequence (O95747 whole entry T185E, looked up): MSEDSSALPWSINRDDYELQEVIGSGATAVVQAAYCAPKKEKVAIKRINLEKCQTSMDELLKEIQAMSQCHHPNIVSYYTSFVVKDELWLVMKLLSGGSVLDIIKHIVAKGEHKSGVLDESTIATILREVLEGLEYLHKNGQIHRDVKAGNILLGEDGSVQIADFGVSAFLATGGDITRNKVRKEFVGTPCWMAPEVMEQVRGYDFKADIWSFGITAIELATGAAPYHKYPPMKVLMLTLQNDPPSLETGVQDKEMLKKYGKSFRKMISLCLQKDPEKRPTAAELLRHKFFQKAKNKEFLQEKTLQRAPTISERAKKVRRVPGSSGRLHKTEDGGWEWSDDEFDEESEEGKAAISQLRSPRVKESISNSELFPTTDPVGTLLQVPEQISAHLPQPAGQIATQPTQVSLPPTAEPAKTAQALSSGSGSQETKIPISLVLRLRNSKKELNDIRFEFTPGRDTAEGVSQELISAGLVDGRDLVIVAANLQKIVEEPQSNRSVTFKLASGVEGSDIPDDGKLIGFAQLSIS
Assay: radiometric filter-binding kinase assay
Conditions: compound 10.0 µM
Give just the numeric value; % need not be written.

compound=Cc1ccc(-c2ccc3c(ccc4sc5c(c43)NC[C@@H](C)NC5=O)n2)cn1 testedsystem="OXSR1 (human), O95747 [T185E]" recordedendpoint="residual activity" testresult=118
compound=CC(C)(C#N)c1ccc(N2C(=O)OCc3cnc4ccc(-c5cnc6ccccc6c5)cc4c32)cc1 testedsystem="OXSR1 (human), O95747 [T185E]" recordedendpoint="residual activity" testresult=103
compound=CNc1nc(-c2ccc3c(N)n[nH]c3c2)cc(N2C[C@@H](C(=O)NC3CCCCC3)CC[C@H]2C)n1 testedsystem="OXSR1 (human), O95747 [T185E]" recordedendpoint="residual activity" testresult=103
compound=O=C(N[C@@H](COc1ccc2[nH]c(=O)[nH]c2c1)c1ccccc1)c1cccn(Cc2ccc(F)c(F)c2)c1=O testedsystem="OXSR1 (human), O95747 [T185E]" recordedendpoint="residual activity" testresult=83
compound=O=C(NOC[C@H](O)CO)c1ccc(F)c(F)c1Nc1ccc(I)cc1Cl testedsystem="OXSR1 (human), O95747 [T185E]" recordedendpoint="residual activity" testresult=93

Query: I have this compound here, C=CC(=O)N1CCC[C@@H](n2nc(-c3ccc(Oc4ccccc4)cc3)c3c(N)ncnc32)C1 , and I need its recorded residual activity.
Reply: 82

Query: I have this compound here, CC1=C(CO)C(=O)O[C@@H]([C@@H](C)[C@H]2CC[C@H]3[C@@H]4C[C@H]5O[C@]56[C@@H](O)C=CC(=O)[C@]6(C)C4CC[C@]23C)C1 (some centres not stated) , and I need its recorded residual activity.
Reply: 125

Query: I have this compound here, CCNc1nc(Nc2cc(F)c(C(=O)N3CCOCC3)cc2OC)ncc1C(F)(F)F , and I need its recorded residual activity.
Reply: 54

Query: I have this compound here, Cc1ccc(=O)n(-c2ccccc2)c1 , and I need its recorded residual activity.
Reply: 115

Query: I have this compound here, Nc1cccc2c1CN(C1CCC(=O)NC1=O)C2=O (configuration not stated) , and I need its recorded residual activity.
Reply: 112

Query: I have this compound here, Cc1nc(-c2ccc(OCC(C)C)c(C#N)c2)sc1C(=O)O , and I need its recorded residual activity.
Reply: 80

Query: I have this compound here, CCOC(=O)c1ccc(N2NC(=O)/C(=C/c3ccc([N+](=O)[O-])o3)C2=O)cc1 , and I need its recorded residual activity.
Reply: 115

Query: I have this compound here, COc1cc(C(=O)N2CCOCC2)c(F)cc1Nc1ncc(C(F)(F)F)c(NC2CC2)n1 , and I need its recorded residual activity.
Reply: 51

Query: I have this compound here, O=C(NOCC(O)CO)c1ccc(F)c(F)c1Nc1ccc(I)cc1Cl (configuration not stated) , and I need its recorded residual activity.
Reply: 87

Query: I have this compound here, NC(=O)c1cc(-c2ccnc(NC3CCCCC3)c2)nc(N2CCNCC2)c1 , and I need its recorded residual activity.
Reply: 73

Query: I have this compound here, CCn1c(-c2nonc2N)nc2cncc(CNC3CCNCC3)c21 , and I need its recorded residual activity.
Reply: 97

Query: I have this compound here, COC(=O)/C=C/C(=O)OC , and I need its recorded residual activity.
Reply: 96

###

Biological target: UniProtKB Q8IW41
Sequence (Q8IW41 whole entry, looked up): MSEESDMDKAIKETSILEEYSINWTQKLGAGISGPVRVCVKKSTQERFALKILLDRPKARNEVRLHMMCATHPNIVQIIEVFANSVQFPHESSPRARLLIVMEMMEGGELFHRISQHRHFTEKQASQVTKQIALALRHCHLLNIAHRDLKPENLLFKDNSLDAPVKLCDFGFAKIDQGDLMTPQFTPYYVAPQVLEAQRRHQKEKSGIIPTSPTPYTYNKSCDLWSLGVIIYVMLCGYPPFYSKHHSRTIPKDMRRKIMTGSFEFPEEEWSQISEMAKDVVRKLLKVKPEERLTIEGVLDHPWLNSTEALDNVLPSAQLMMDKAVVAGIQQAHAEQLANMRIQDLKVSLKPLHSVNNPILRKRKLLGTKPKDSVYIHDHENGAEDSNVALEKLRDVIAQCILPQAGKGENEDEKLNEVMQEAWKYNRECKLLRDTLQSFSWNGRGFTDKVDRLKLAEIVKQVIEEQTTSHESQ
Test: radiometric filter-binding kinase assay
Details: compound 100.0 µM
// reported residual activity for each item listed
Give just the numeric value; % need not be written.

structuresmiles=N#Cc1c(O)c2c(-c3ccc(-c4ccccc4O)cc3)csc2[nH]c1=O testresult=15
structuresmiles=Cc1ccc2c(c1)C(=O)[C@@]1(O)CCN(c3ccccc3)C1=N2 testresult=64
structuresmiles=COC(=O)/C=C/C(=O)OC testresult=92

Kindly review the next compound as well.
Query: I have this compound here, Cc1cc(N=Nc2cc(S(=O)(=O)O)c(C)cc2C)c(N)cc1O , and I need its recorded residual activity.
Reply: 70

###

Molecular target: EPHB4 (human)
Assay: radiometric filter-binding kinase assay
Conditions: compound 1.0 µM
// reported residual activity for each item listed
Give just the numeric value; % need not be written.

Worked examples, 4 compounds total:
structuresmiles=N#Cc1c(C2CCNCC2)cc(-c2c(O)cccc2OCC2CC2)nc1N testresult=90
structuresmiles=O=C(Nc1cccnc1)c1cc(-c2ccnc(F)c2)ccc1OCc1ccccc1 testresult=118
structuresmiles=O=C(Nc1ccccc1-c1cn2c(CN3CCNCC3)csc2n1)c1cnc2ccccc2n1 testresult=96
structuresmiles=CNc1nc(-c2ccc3c(N)n[nH]c3c2)cc(N2C[C@@H](C(=O)NC3CCCCC3)CC[C@H]2C)n1 testresult=119

Query: I have this compound here, Cc1cc(NC(=O)c2cccc(NC(=O)/C=C/CN(C)C)c2)ccc1Nc1nccc(-c2cccnc2)n1 , and I need its recorded residual activity.
Reply: 98

###

Target: AURKA (human)
Assay: radiometric filter-binding kinase assay
Settings: compound 0.1 µM
recordedEndpoint: residual activity (%)
Give just the numeric value; % need not be written.

Worked examples, 5 compounds total:
structuresmiles=COc1ccc(-n2ncc3cnc(Nc4cc(OC)c(OC)c(OCCCN5CCN(C)CC5)c4)nc32)cc1 testresult=18
structuresmiles=CNc1nc(-c2ccc3c(N)n[nH]c3c2)cc(N2C[C@@H](C(=O)NC3CCCCC3)CC[C@H]2C)n1 testresult=115
structuresmiles=CCn1c(-c2nonc2N)nc2cncc(CNC3CCNCC3)c21 testresult=91
structuresmiles=C=CC(=O)N1CCC[C@@H](n2nc(-c3ccc(Oc4ccccc4)cc3)c3c(N)ncnc32)C1 testresult=92
structuresmiles=CN(C)C/C=C/C(=O)Nc1cccc(C(=O)Nc2ccc(Nc3nccc(-c4cccnc4)n3)cc2)c1 testresult=107

Query: I have this compound here, COc1ccc(N(C(=O)Nc2c(C)cccc2C)c2cc(Nc3ccc(N4CCN(C)CC4)cc3)ncn2)c(OC)c1 , and I need its recorded residual activity.
Reply: 91

Query: I have this compound here, CN1CCN(CCOc2cc(OC3CCOCC3)c3c(Nc4c(Cl)ccc5c4OCO5)ncnc3c2)CC1 , and I need its recorded residual activity.
Reply: 112

Query: I have this compound here, c1ccc2c(-c3cnn4cc(-c5ccc(N6CCNCC6)cc5)cnc34)ccnc2c1 , and I need its recorded residual activity.
Reply: 100

Query: I have this compound here, NC(=O)c1cc2c(-c3cccc(-c4ccccc4)c3)cnc(N)c2s1 , and I need its recorded residual activity.
Reply: 95
